Test: in vitro
Type: cell-based, human
Conditions: human

smiles input | IC20 at 48 h (µM)
CCCCCC=O | 800
CCC=O | 2500
CCCCC=O | 1700
CCCCCCC=O | 600
CCCCCCCC=O | 580

* * *

Test system: KIF1A (NM_004321) expression in A549 cells
Assay: Oligo microarray gene expression, KIF1A
Assay type: cell-based, human
Details: A549 cells treated 48 hours at the IC20 concentration; Cy5/Cy3 ratio vs untreated control
Description: A549 cells were distributed in 6-well plate at the density of 25×10^4 cells/ml, to which lower aliphatic saturated aldehydes were treated for 48 hours at the concentrations determined in Example <1-2>. […] The amount of total RNA was measured with spectrophotometer, and the concentration was confirmed by ND-1000 Spectrophotometer (Thermo Fisher Scientific Inc., USA) and Agilent 2100 Bioanalyzer (Agilent). […]
Binary label based on Median ratio of microarray, KIF1A with cut-off 4: below gives met, not below gives not met.

compound | answer label
CCCCCCCC=O [octanal] | met
CCCCC=O [valeraldehyde] | not met
CCC=O [propionaldehyde] | met
CCCCCCC=O [heptanal] | met
CCCCCC=O [hexanal] | met
CCCC=O [butylaldehyde] | not met

* * *

The entries below are paired with their reported Median ratio of microarray, EMR2.
Tested on: EMR2 (NM_013447) expression in A549 cells
Assay: Oligo microarray gene expression, EMR2
Format: cell-based, human
Conditions: A549 cells treated 48 hours at the IC20 concentration; Cy5/Cy3 ratio vs untreated control

smiles input | Median ratio of microarray, EMR2
CCCCCC=O | 1.89
CCC=O | 6.906
CCCC=O | 8.094
CCCCC=O | 6.242
CCCCCCC=O | 2.25
CCCCCCCC=O | 1.785

* * *

Test system: DHRS9 (NM_005771) expression in A549 cells
Assay: Oligo microarray gene expression, DHRS9
Assay type: cell-based, human
Details: A549 cells treated 48 hours at the IC20 concentration; Cy5/Cy3 ratio vs untreated control
The entries below are paired with their reported Median ratio of microarray, DHRS9.
experimental endpoint: Median ratio of microarray, DHRS9

smiles input | experimental endpoint | reported result
CCCC=O | Median ratio of microarray, DHRS9 | 2.353
CCC=O | Median ratio of microarray, DHRS9 | 2.988
CCCCC=O | Median ratio of microarray, DHRS9 | 2.088
CCCCCCCC=O | Median ratio of microarray, DHRS9 | 3.057
CCCCCCC=O | Median ratio of microarray, DHRS9 | 2.157
CCCCCC=O | Median ratio of microarray, DHRS9 | 1.654
